Test: Cytotoxicity against human MRC5 cells at 100 ug/ml after 72 hrs by Alamar blue assay
Assay type: cell-based
Conditions: at 100 µg/mL, read-out: INH
quantity-name: cytotoxicity at 72 h, 100 ug/ml

Sample Nc1nnc(-c2cnccc2N)s1 — what was its cytotoxicity at 72 h, 100 ug/ml?
10%

###

Assay: Lipophilicity, log D of the compound in octanol buffer at pH 7.4
Type: physicochemical
quantity-name: logD
Format: numeric value only, no unit, no commentary.

Below are worked cases with known answers.
# molecule, test-result
data = [
    ("Cc1cc(C)cc(-c2nnc(N)s2)c1", 2.95),
    ("Nc1nnc(CCOc2ccc(Cl)cc2)s1", 2.44),
    ("Nc1nnc(-c2cccc(NS(=O)(=O)c3ccc([N+](=O)[O-])cc3)c2)s1", 2.43),
    ("CCC(C)c1nnc(N)s1 (stereo not given)", 1.25),
    ("Nc1nnc(CCCC(=O)c2ccccc2)s1", 1.76),
]

Requested field: logD. Item: N#Cc1ccc(-c2nnc(N)s2)cc1
1.68

Report logD for Nc1nnc(-c2ccc3nn[nH]c3c2)s1 please.
0.38

###

Molecular target: Bifunctional dihydrofolate reductase-thymidylate synthase (Leishmania major)
Assay: Inhibition of Leishmania major DHFR at 50 uM
Calls of active or inactive are those of the source. The calls are words filed in the database; no cut-off is given here.
quantity-name: inhibition

For orientation, consider the following solved cases.
# chemical-structure, test-result
records = [
    ("Nc1nnc(CCC(=O)c2ccc(Cl)cc2)s1", "inactive"),
    ("O=C(c1ccc(O)cc1)c1ccc(F)cc1", "inactive"),
    ("O=C(CN1C(=O)c2ccccc2C1=O)Nc1nnc(CN2C(=O)c3ccccc3C2=O)s1", "inactive"),
    ("O=C(CCCl)Nc1nnc(CCCl)s1", "inactive"),
    ("Cn1ncc2cc(N)ccc21", "inactive"),
    ("Nc1nnc(-c2cnccc2N)s1", "inactive"),
]

Record request: inhibition value, item Nc1nnc(-c2ccc3[nH]nnc3c2)s1
inactive

###

Assay: Lipophilicity, log D of the compound in octanol buffer at pH 7.4
Format: physicochemical
Parameter logD: see the listing below.

Solved cases (10 shown):
# compound, test-result
data = [
    ("Nc1nnc(CCC(=O)c2ccc(Cl)cc2)s1", 2.2),
    ("Nc1nnc(CCc2ccccc2)s1", 2.03),
    ("CCOc1ccc(-c2nnc(N)s2)cc1", 2.73),
    ("Cc1nnc(N)s1", -0.16),
    ("Nc1nnc(-c2ccncc2)s1", 0.77),
    ("Nc1nnc(-c2cnccc2N)s1", 1.44),
    ("Nc1nnc([C@@H](O)c2ccccc2)s1", 1),
    ("Nc1nnc(CN2C(=O)c3ccccc3C2=O)s1", 0.22),
    ("Nc1nnc(-c2cc(=O)c3ccccc3o2)s1", 1.4),
    ("Nc1nnc(CC2NC(=O)NC2=O)s1 (stereo not given)", -1.74),
]

Which logD is reported for this compound? Nc1nnc(CCC(=O)c2cccs2)s1
1.11

// logD lookup, key: Cc1ccc(-c2nnc(N)s2)cc1C
2.95

Fill in: logD of Nc1nnc(-c2ccccc2)s1 is ___
2.03

Item under review: Nc1nnc(-c2cccc([N+](=O)[O-])c2)s1 . Reported logD?
1.94

Look up logD: Nc1nnc(-c2ccco2)s1
0.82
